- Assay Protocol: Solubility in water
- Type: physicochemical
Known solubility of a selection of compounds

Compound	Val
CC1CC(=O)c2c(N3CCN(C)CC3)c(F)cc3c(=O)c(C(=O)O)cn1c23.Cl.O (racemic) [Racemate]	~7 mg/mL

Now for another entry.
Return value of solubility for input CC1CC(=O)c2c(N3CCN(C)CC3)c(F)cc3c(=O)c(C(=O)O)cn1c23.Cl.O (single isomer, unassigned; (+)) [Present compound] , no commentary.
~180 mg/mL

The measured values listed here are drawn from patent US4946844A.
